# Tested on: MS2 coat protein
# protocol.details: apparent KD of MS2 coat protein; designed switch direction (-1 OFF switch, 1 ON switch): 1; higher = weaker reporter binding
# experimental.context: Eterna round: R95; input ligand: FMN 200 uM
Categories are assigned from the measured apparent KD of MS2 coat protein using these intervals: lower (below 40 nM), middle (40 nM to below 90 nM), upper (90 nM or more)

{"columns": ["sequence.input", "label"],
 "data": [
  ["UUUAGUUGCGGGCAGGAUAUGUAUUAAAAUACAUGAGGAUCACCCAUGUGAGGUCAUAACGACCUACAGAAGGGCCAAUCGCGAC [Laonerce - 15] (puzzle: Same State 2)", "lower"],
  ["GAGUUACUAUCUCAGGAUAUCAUGUCAAAGACAUGAGGAUCACCCAUGUACCAGGAAACUGGUUAUGAGAAGGGAGAUAGUAACA [Mat - Same State 2 - Mod - D51] (puzzle: Same State 2)", "upper"],
  ["GACAAUCUAUCUCAGGAUAUCAUGUCAAAGACAUGAGGAUCACCCAUGUACCAGGAAACUGGUUAUGAGAAGGGAGAUAGAUUGA [Mat - Same State 2 - Mod - D26] (puzzle: Same State 2)", "upper"],
  ["AACAAUCUAUCUGAGGAUAUCAUGAAAUAAACAUGAGGAUCACCCAUGUGCAGGAAAACUGCAUAUGAGAAGGCUGAUAGAUUGA [salish99_ss2_r3_051] (puzzle: Same State 2)", "middle"],
  ["UUAAAACAUGAGGAUCACCCAUGUCAACAAAGUCGAGGAUAUGGGCAAAUAAAAUAAGAACCAGAAGGCGAAUAAC [salish99_SS1_r3_007] (puzzle: Same State 1)", "middle"],
  ["AUCCUACAUGAGGAUCACCCAUGUGACGCCUCAAUAGGAUAUCGGGCCCACAGUCAGGAACGAGAAGGAUUGAAGC [Digerier] (puzzle: Same State 1)", "middle"],
  ["AGUCCAGCCUGAGCUGGACAAAAGCAUGUACAUGAGGAUCACCCAUGUCAUGUAUAAGCUUUUUGCUCGUUUUAAUA [Zipper 49 - 16] (puzzle: Sensor for hsa-mir-208a)", "lower"],
  ["AUAAAACAUGAGGAUCACCCAUGUCAACAAAGUCGAGGAUAUGGGCAAAUAAAAUAAGAACUAGAAGGCGAAUAAU [salish99_ss1_r3_031] (puzzle: Same State 1)", "upper"],
  ["GAGAAGAGGGACAAGGAUAUGUCAGGAGAGACAUGAGGAUCACCCAUGUAGAGGUUGGAGGAGAGACAGAAGGUGUCGGGAGCGA [JR_SS2_Sub013] (puzzle: Same State 2)", "middle"],
  ["AUAAGUUCGAUGCUCGUCUUUCCGUACAAACAUGAGGAUCACCCAUGUGAUCGGGAAGUAGCCCGAUCAGUAUGGCC [Leceen] (puzzle: Sensor for hsa-mir-208a)", "lower"]
]}

----------
Known apparent KD of MS2 coat protein of a selection of sequences
# Test system: MS2 coat protein
# protocol.details: apparent KD of MS2 coat protein; designed switch direction (-1 OFF switch, 1 ON switch): -1; higher = weaker reporter binding
# experimental.context: input ligand: microRNA oligo, concentration not stated

{"columns": ["sequence.input", "study.system", "unit.text", "apparent KD of MS2 coat protein"],
 "data": [
  ["GGAUAUAACGUAGGAUAUCAGAGAAACAGACGAUGAGAAGGACGACAUGAGGAUCACCCAUGUGAUCUAUCAAUAUUAUACAUG [Prohibition 98 - Jieux - Exclusion NG 1] (Eterna round: R96, puzzle: Exclusion NG 1)", "MS2 coat protein", "nM", 434],
  ["UUAAUUAAUUAUAUAAGAUCACAUGAGGAUCACCCAUGUAUAUAGGAUAUCAGCUCGUUUAGAGCUGAGAAGGAUAUACAAUAU [ExNG3/3-B2] (Eterna round: R96, puzzle: Exclusion NG 3)", "MS2 coat protein", "nM", 497]
]}
